experimental_target: PEG-3 (UniProt Q6IN02)
test_description: GAPDH versus PEG-3 reporter suppression – cell-based, luminescence, counter-screen for PEG-3 promoter inhibitor project, SAR follow-up (AID 651551)
cond: HeLa PEG-Prom / GAPDH luciferase reporter, 6 or 24 h, mean of runs, 24 h
Activity calls are given as the source filed them.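 How the source made its calls: active means compounds blocking the Peg3 reporter with IC50 up to 10 µM at 6 or 24 hours, yet inert on a control reporter; inactive means the rest.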
property_name: IC50

(Q) Which IC50 reading was recorded for the molecule COc1ccc(-n2nc(C(=O)NCC(=O)Nc3cccc(OC)c3)c3ccccc3c2=O)cc1 ?
(A) > 99 µM (inactive)

(Q) What would you report for Cc1nc(NC(=O)c2ccccc2)sc1-c1csc(Nc2cccc(Cl)c2C)n1 ?
(A) > 99 µM (inactive)

(Q) Same lookup for Cc1cc(NC(=O)c2cccc(C)c2C)n(-c2nc3ccccc3[nH]2)n1 , please.
(A) > 99 µM (inactive)
